System: MO59J
Assay: Proliferation assay MO59J
Format: cell-based
Details: Glioma, 72 hours
Exercise: for every item that follows, state its recorded IC50.
Remember to follow the number with its unit.

(Q) State its IC50 for this compound: Oc1cc(CNC(=S)/C=C/c2cc(O)c(O)c(Br)c2)cc(O)c1O [Compound 9]
(A) 900 nM

(Q) State its IC50 for this compound: N#C/C(=C\c1cc(O)c(O)c(Br)c1)C(=S)NCc1cc(O)c(O)c(Br)c1 [Compound 6]
(A) 8300 nM

(Q) State its IC50 for this compound: N#C/C(=C\c1cc(O)c(O)c(I)c1)C(=S)NCc1cc(O)c(O)c(O)c1 [Compound 8]
(A) 1600 nM

(Q) State its IC50 for this compound: N#C/C(=C\c1cc(O)c(O)c(Br)c1)C(=S)NCc1cc(O)c(O)c(O)c1 [Compound 7]
(A) 2100 nM

* * *

Exercise: for every item that follows, state its recorded IC50.
System: LIM 1899
Assay: Proliferation assay LIM 1899
Type: cell-based
Conditions: Colon, 72 hours
The answer is to be given in µM; state only the numeric part.

(Q) State its IC50 for this compound: N#C/C(=C\c1cc(O)c(O)c(I)c1)C(=S)NCc1cc(O)c(O)c(O)c1
(A) 7.1

(Q) State its IC50 for this compound: N#C/C(=C\c1cc(O)c(O)c(Br)c1)C(=S)NCc1cc(O)c(O)c(O)c1
(A) 7.6

(Q) State its IC50 for this compound: Oc1cc(CNC(=S)/C=C/c2cc(O)c(O)c(Br)c2)cc(O)c1O
(A) 2

* * *

Tested on: LNCaP
Experiment: Proliferation assay LNCaP
Assay type: cell-based
Conditions: Homo sapiens, Prostate, 72 hours
ATTRIBUTE MEASURED: pIC50
Field pIC50 (float): negative decimal logarithm of the concentration in molar.

(Q) State its pIC50 for this compound: N#C/C(=C\c1cc(O)c(O)c(I)c1)C(=S)NCc1cc(O)c(O)c(O)c1
(A) 5.11

(Q) State its pIC50 for this compound: Oc1cc(CNC(=S)/C=C/c2cc(O)c(O)c(Br)c2)cc(O)c1O
(A) 5.33

* * *

System: PC3-MM2
Test: Proliferation assay PC3-MM2
Type: cell-based
Settings: Homo sapiens, PC3MM2, Prostate, 72 hours
Exercise: for every item that follows, state its recorded pIC50.
Field pIC50 (float): negative decimal logarithm of the concentration in molar.

(Q) State its pIC50 for this molecule: N#C/C(=C\c1cc(O)c(O)c(Br)c1)C(=S)NCc1cc(O)c(O)c(O)c1
(A) 5.59

(Q) State its pIC50 for this molecule: N#C/C(=C\c1cc(O)c(O)c(I)c1)C(=S)NCc1cc(O)c(O)c(O)c1
(A) 5.68

(Q) State its pIC50 for this molecule: Oc1cc(CNC(=S)/C=C/c2cc(O)c(O)c(Br)c2)cc(O)c1O
(A) 5.16

* * *

Exercise: for every item that follows, state its recorded pIC50.
Tested on: YURIF
Experiment: Proliferation assay YURIF
Type: cell-based
Details: Homo sapiens; Table 4; 72 hours incubation; read-out: Inhibition of human metastatic melanoma cells, YURIF IC50
Field pIC50 (float): negative decimal logarithm of the concentration in molar.

(Q) State its pIC50 for this compound: Oc1cc(CNC(=S)/C=C/c2cc(O)c(O)c(Br)c2)cc(O)c1O [Compound 9]
(A) 6.19

(Q) State its pIC50 for this compound: N#C/C(=C\c1cc(O)c(O)c(Cl)c1)C(=S)NCc1cc(O)c(O)c(O)c1 [Compound 11]
(A) 5.92

(Q) State its pIC50 for this compound: Oc1cc(CNC(=S)/C=C/c2cc(O)c(O)c(I)c2)cc(O)c1O [Compound 10]
(A) 6.33

(Q) State its pIC50 for this compound: N#C/C(=C\c1cc(O)c(O)c(I)c1)C(=S)NCc1cc(O)c(O)c(O)c1 [Compound 8]
(A) 5.80

(Q) State its pIC50 for this compound: N#C/C(=C\c1cc(O)c(O)c(C(F)(F)F)c1)C(=S)NCc1cc(O)c(O)c(O)c1 [Compound 13]
(A) 6.06

(Q) State its pIC50 for this compound: N#C/C(=C\c1cc(O)c(O)c(Br)c1)C(=S)NCc1cc(O)c(O)c(O)c1 [Compound 7]
(A) 5.85

* * *

Target: IGF1R (Homo sapiens, UniProt P08069)
Construct: made in house
Sequence (P08069 31-1367, species assumed): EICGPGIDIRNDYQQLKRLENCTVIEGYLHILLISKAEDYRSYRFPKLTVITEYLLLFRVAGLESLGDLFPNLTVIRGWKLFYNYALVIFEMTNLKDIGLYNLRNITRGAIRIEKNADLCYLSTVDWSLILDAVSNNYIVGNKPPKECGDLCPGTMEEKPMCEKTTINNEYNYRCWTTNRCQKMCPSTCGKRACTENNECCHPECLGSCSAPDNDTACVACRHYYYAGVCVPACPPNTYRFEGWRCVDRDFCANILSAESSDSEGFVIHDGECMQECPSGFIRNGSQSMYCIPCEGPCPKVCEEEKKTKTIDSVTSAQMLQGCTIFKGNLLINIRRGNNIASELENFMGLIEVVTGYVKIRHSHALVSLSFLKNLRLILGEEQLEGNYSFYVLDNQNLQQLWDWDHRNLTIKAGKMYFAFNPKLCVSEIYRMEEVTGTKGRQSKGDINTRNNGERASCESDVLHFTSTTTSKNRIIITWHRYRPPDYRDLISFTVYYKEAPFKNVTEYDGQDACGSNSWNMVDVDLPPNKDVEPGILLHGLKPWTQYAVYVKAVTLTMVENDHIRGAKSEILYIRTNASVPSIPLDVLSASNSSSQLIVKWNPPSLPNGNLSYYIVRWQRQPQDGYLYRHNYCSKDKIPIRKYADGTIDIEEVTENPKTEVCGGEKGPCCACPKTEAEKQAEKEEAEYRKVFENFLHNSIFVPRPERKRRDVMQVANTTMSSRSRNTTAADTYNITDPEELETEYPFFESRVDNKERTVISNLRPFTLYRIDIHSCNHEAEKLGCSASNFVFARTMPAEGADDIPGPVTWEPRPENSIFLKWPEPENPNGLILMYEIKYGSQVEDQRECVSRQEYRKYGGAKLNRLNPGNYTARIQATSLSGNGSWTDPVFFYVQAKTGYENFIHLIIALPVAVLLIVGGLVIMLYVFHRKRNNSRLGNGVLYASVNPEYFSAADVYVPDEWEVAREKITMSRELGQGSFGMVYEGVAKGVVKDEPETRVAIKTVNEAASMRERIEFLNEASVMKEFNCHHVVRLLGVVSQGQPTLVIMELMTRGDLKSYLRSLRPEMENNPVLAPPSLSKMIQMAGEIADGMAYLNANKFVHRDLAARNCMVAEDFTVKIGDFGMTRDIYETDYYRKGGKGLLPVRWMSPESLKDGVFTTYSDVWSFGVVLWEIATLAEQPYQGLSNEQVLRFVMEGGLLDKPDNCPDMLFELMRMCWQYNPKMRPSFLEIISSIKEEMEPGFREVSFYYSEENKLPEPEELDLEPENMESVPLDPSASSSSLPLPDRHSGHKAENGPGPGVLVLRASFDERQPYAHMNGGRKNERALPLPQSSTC
Assay: IGF1R cellular free kinase assay (pGT substrate phosphorylation)
Format: biochemical
Conditions: [ATP] 5 μM; read-out: IC50, competition with ATP in cellular free kinase assay of IGF1R
ATTRIBUTE MEASURED: pIC50
Field pIC50 (float): negative decimal logarithm of the concentration in molar.

(Q) State its pIC50 for this molecule: N#C/C(=C\c1cc(O)c(O)c(I)c1)C(=S)NCc1cc(O)c(O)c(O)c1 [Compound 8]
(A) 6.96

(Q) State its pIC50 for this molecule: N#C/C(=C\c1cc(O)c(O)c(Br)c1)C(=S)NCc1cc(O)c(O)c(O)c1 [Compound 7]
(A) 6.79

(Q) State its pIC50 for this molecule: N#C/C(=C\c1cc(O)c(O)c(Br)c1)C(=S)NCc1cc(O)c(O)c(Br)c1 [Compound 6]
(A) 7.25

* * *

Molecular target: IGF1R (Homo sapiens)
Construct: made in house
Assay: IGF1R cellular free kinase assay (pGT substrate phosphorylation)
Format: biochemical
Settings: partially purified IGF1R; 20 μM ATP; read-out: IC50 values of IGF1R activity in cellular free kinase assay
ATTRIBUTE MEASURED: pIC50
Field pIC50 (float): negative decimal logarithm of the concentration in molar.

(Q) State its pIC50 for this compound: Oc1cc(CNC(=S)/C=C/c2cc(O)c(O)c(I)c2)cc(O)c1O
(A) 7.48

(Q) State its pIC50 for this compound: N#C/C(=C\c1cc(O)c(O)c(I)c1)C(=S)NCc1cc(O)c(O)c(O)c1
(A) 7.12

(Q) State its pIC50 for this compound: N#C/C(=C\c1cc(O)c(O)c(Br)c1)C(=S)NCc1cc(O)c(O)c(Br)c1
(A) 7.01

(Q) State its pIC50 for this compound: N#C/C(=C\c1cc(O)c(O)c(F)c1)C(=S)NCc1cc(O)c(O)c(O)c1
(A) 6.77

(Q) State its pIC50 for this compound: N#C/C(=C\c1cccc(Br)c1)C(=S)NCc1cc(O)c(O)c(O)c1
(A) 6.15

* * *

Tested on: NCl-H1975
Assay: Proliferation assay NCl-H1975
Format: cell-based
Conditions: Lung, 72 hours
Exercise: for every item that follows, state its recorded IC50.
The answer is to be given in nM; state only the numeric part.

(Q) State its IC50 for this compound: N#C/C(=C\c1cc(O)c(O)c(Br)c1)C(=S)NCc1cc(O)c(O)c(O)c1
(A) 2500

(Q) State its IC50 for this compound: Oc1cc(CNC(=S)/C=C/c2cc(O)c(O)c(Br)c2)cc(O)c1O
(A) 2700

(Q) State its IC50 for this compound: N#C/C(=C\c1cc(O)c(O)c(I)c1)C(=S)NCc1cc(O)c(O)c(O)c1
(A) 2300

* * *

Test system: K562
Experiment: Proliferation assay K562
Assay type: cell-based
Conditions: Homo sapiens, Leukemia, 72 hours
pIC50: −log10 of the molar value.
ATTRIBUTE MEASURED: pIC50

(Q) State its pIC50 for this compound: Oc1cc(CNC(=S)/C=C/c2cc(O)c(O)c(Br)c2)cc(O)c1O
(A) < 5.00

(Q) State its pIC50 for this compound: N#C/C(=C\c1cc(O)c(O)c(Br)c1)C(=S)NCc1cc(O)c(O)c(Br)c1
(A) < 5.00

(Q) State its pIC50 for this compound: N#C/C(=C\c1cc(O)c(O)c(I)c1)C(=S)NCc1cc(O)c(O)c(O)c1
(A) ~5.00

(Q) State its pIC50 for this compound: N#C/C(=C\c1cc(O)c(O)c(Br)c1)C(=S)NCc1cc(O)c(O)c(O)c1
(A) ~5.00

* * *

Exercise: for every item that follows, state its recorded pIC50.
System: AsPC1
Experiment: Proliferation assay AsPC1
Type: cell-based
Conditions: Homo sapiens, Pancreatic, 72 hours
pIC50: −log10 of the molar value.

(Q) State its pIC50 for this molecule: N#C/C(=C\c1cc(O)c(O)c(I)c1)C(=S)NCc1cc(O)c(O)c(O)c1 [Compound 8]
(A) 5.02

(Q) State its pIC50 for this molecule: N#C/C(=C\c1cc(O)c(O)c(Br)c1)C(=S)NCc1cc(O)c(O)c(O)c1 [Compound 7]
(A) < 5.00

(Q) State its pIC50 for this molecule: Oc1cc(CNC(=S)/C=C/c2cc(O)c(O)c(Br)c2)cc(O)c1O [Compound 9]
(A) < 5.00

(Q) State its pIC50 for this molecule: N#C/C(=C\c1cc(O)c(O)c(Br)c1)C(=S)NCc1cc(O)c(O)c(Br)c1 [Compound 6]
(A) < 5.00
